assay: small-molecule microarray binders of probe aXIP, primary screen, biochemical, NeuroSMM set, 635/667 nm fluorescence (AID 1119); conditions: higher = more signal, called active from +8 up or from −8 down;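 also: probe is the protein aXip251-270 applied at 1 µg/mL to compound-printed slides; binding of probe to printed compounds measured as 667 nm fluorescence plus signal to noise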
property_name: composite Z-score
Output: the number by itself.

Some entries whose results are on file:
COC(=O)C1=CC(c2ccc(CO)cc2)=CC(c2cccs2)N(C)C=C1C(=O)OC (stereo not drawn)
0.875
C=C(COC)C(=O)CC[C@@H](OC(=O)c1ccccc1-c1ccccc1C(=O)O)c1cccc(OCCO)c1
-0.122
COc1ccc([Si](C)(C)[C@H]2[C@H](CCO)O[C@@]3(C(=O)N(Cc4ccc(N5C(=O)c6cccc7cccc5c67)cc4)c4ccccc43)[C@@H]2C)cc1
0.466

composite Z-score recorded for this molecule, O=c1n(-c2ccccc2)c(=O)n2n1CC(COc1ccccc1)=C1[C@@H](CCc3ccccc3)OB(O)C[C@@H]12 , is 0.237

composite Z-score recorded for this molecule, COCCCNC(=O)[C@@]1(CCS(=O)(=O)c2ccccc2)N=C(c2ccc(OCCCO)cc2)O[C@H]1c1ccccc1CN=[N+]=[N-] , is 0.582

composite Z-score recorded for this molecule, COC(=O)c1c(CC[C@@H](CO)NC(=O)Nc2ccc(OC)cc2)oc(C(=O)Cc2ccccc2)c1C(=O)OC , is 0.466

composite Z-score recorded for this molecule, [N-]=[N+]=NCc1ccccc1C[C@]1(C(=O)NCc2ccccc2)N=C(c2ccc(OCCCO)cc2)O[C@H]1c1ccccc1 , is 0.945

composite Z-score recorded for this molecule, COC(=O)[C@@]1(CCC(=O)OC(C)(C)C)COC(c2ccc(OCCCO)cc2)=N1 , is -0.378

* * *

Items are presented alongside their recorded composite z-score.
assay: small-molecule binders of probe aLefty1, primary screen, biochemical, small-molecule microarray, 635/667 nm fluorescence (AID 1153); settings: higher = more signal;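 also: score merges spot fluorescence with signal-to-noise ratio from the scanned slide images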

CCCNC(=O)[C@@]1(Sc2ccc(C)cc2)CC(=O)N(Cc2cc(C(F)(F)F)cc(C(F)(F)F)c2)[C@@H]1c1ccc(CO)cc1I
0.114
CCOC(=O)C[C@H]1[C@H](OC(=O)c2cc3ccccc3oc2=O)[C@@H](NC(=O)c2ccccc2)c2cc(OCCCO)ccc2N1C(=O)Cc1ccc(OC)cc1
-0.0051

composite z-score recorded for this molecule, C[N+](C)(C)CCCCNC(=O)[C@@H]1C[C@@H]2C(=O)NCC(=O)N2[C@@H]1c1cccc(OCCO)c1 , is -0.221

composite z-score recorded for this molecule, C=CCN1C(=O)[C@@]2(O[C@@H](CCn3cc(CCO)nn3)[C@H]([Si](C)(C)c3ccc(OC)cc3)[C@H]2C)c2cc(N3C(=O)c4cccc5cccc3c45)ccc21 , is 0.0318

* * *

assay: CREB reporter modulators without forskolin, primary screen, cell-based, PC12, CRE-LacZ reporter, unstimulated (AID 1145); conditions: no forskolin, luminescence, 4.5 h, higher = more signal, called active from +8 up or from −8 down
Items are presented alongside their recorded z-score.
Output: the number by itself.

Some entries whose results are on file:
C=CCC(OC(C)=O)[C@@H]1[C@@H](N(Cc2ccc(-c3ccccc3)cc2)C(=O)c2ccc(-c3ccccc3)cc2)c2cc(OCCCO)ccc2N1C(=O)c1ccc(-c2ccccc2)cc1 (stereo partly drawn)
-0.0247
COc1ccc(C#Cc2ccc3c(c2)[C@]2(C(=O)N3)[C@H](c3ccc(O)cc3)N3[C@H](c4ccccc4)[C@H](c4ccccc4)OC(=O)[C@H]3[C@@H]2C(N)=O)cc1
0.209
C=CCOC(=O)[C@H]1[C@@H]2C(=O)O[C@@H](c3ccccc3)[C@@H](c3ccccc3)N2[C@@H](c2ccc(OCCOC(=O)[C@H]3C[C@H]4C(=O)N5CCC[C@H]5C(=O)N4[C@H]3c3cccc(OCCO)c3)cc2)[C@]12C(=O)Nc1ccccc12
1.22
COC(=O)c1c2oc(c1C(=O)OC)C(=O)N[C@@H](C(C)C)Cn1nncc1C1(CCCCC1)NC(=O)N[C@H](CO)CC2
1.44
CC(C)(C)OC(=O)CC[C@@]12N=C(c3ccc(OCCCO)cc3)O[C@@H]1c1ccccc1CN(Cc1ccccc1)C2=O
0.344
Cc1ccc(S[C@]2(C(=O)NCCN3CCOCC3)CC(=O)N(Cc3cc(C(F)(F)F)cc(C(F)(F)F)c3)[C@@H]2c2ccc(CO)cc2)cc1
-0.464
C=CCN1C(=O)[C@@]2(O[C@@H](CCO)[C@H]([Si](C)(C)c3ccc(OC)cc3)[C@H]2C)c2cc(N(C=O)c3ccccc3)ccc21
16.9
O=C(N1CCCCC1)[C@@]1(Cc2ccccc2)N=C(c2ccc(OCCCO)cc2)O[C@H]1c1ccccc1
0.414

z-score recorded for this compound, [N-]=[N+]=NCc1ccccc1C[C@]1(C(=O)NCc2ccccc2)N=C(c2ccc(OCCCO)cc2)O[C@H]1c1ccccc1 , is 1.11

z-score recorded for this compound, CC(C)C(CO)N1C(=O)[C@@H]2[C@H]3C(=O)OCC=C[C@H]3OC23C=CCN(Cc2ccccc2)C(=O)[C@@H]13 (stereo partly drawn) , is 0.325

z-score recorded for this compound, COc1ccc([Si](C)(C)[C@@H]2[C@@H](CCn3cc(CCO)nn3)O[C@]3(C(=O)N(Cc4ccc(N5C(=O)c6cccc7cccc5c67)cc4)c4ccccc43)[C@H]2C)cc1 , is 0.353

z-score recorded for this compound, CCCCCN1CC=CC23O[C@@H]4/C=C\CCC(C)OC(=O)C4[C@H]2C(=O)N(CCCO)[C@@H]3C1=O (stereo partly drawn) , is 0.487

z-score recorded for this compound, COCCCN1C(=O)[C@@]2(Cc3ccccc31)c1ccccc1C(=O)N(Cc1ccccc1Cl)[C@H]2c1ccc(CO)cc1 , is -0.179

z-score recorded for this compound, COc1ccc([Si](C)(C)[C@H]2[C@H](CCO)O[C@@]3(C(=O)N(Cc4ccc(N5C(=O)c6cccc7cccc5c67)cc4)c4ccccc43)[C@@H]2C)cc1 , is 0.399

z-score recorded for this compound, CC(C)C(=C=CC[C@@H](O)c1ccc(CO)o1)CCO , is 0.681

* * *

tested on: Chordin-like protein 2 (CHRDL2); assay: CHRDL2 small-molecule binders, primary screen, biochemical, small-molecule microarray, 635 nm fluorescence (AID 1126); settings: small-molecule microarray binding, fluorescence 635 nm; higher = more signal;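 also: printed compound slides probed with Chrdl2 protein at 4 µg/mL for 1 h at 4 C; score merges 667 nm emission intensity with signal to noise over three replicate slides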
property_name: composite z-score
Output: the number by itself.

CC(C)N1C(=O)c2ccccc2[C@@H](C(=O)NCc2ccccc2)[C@@H]1c1ccc(CO)cc1
-0.184
C=C(COC)/C(=C/C[C@H](OC(C)=O)c1ccc(CO)o1)c1cnc2ccccc2c1
1.14
COC(=O)c1c2oc(c1C(=O)OC)C(=O)N[C@@H](C(C)C)Cn1nncc1C1(CCCCC1)NC(=O)N[C@H](CO)CC2
-0.573
C=CC[C@@H](OC(=O)Nc1ccc(SC)cc1)c1ccc(OCCO)cc1
-2.01
C=CCC(OC(C)=O)[C@@H]1[C@@H](N(Cc2cccc3ccccc23)C(=O)c2cccc3ccccc23)c2cc(OCCCO)ccc2N1C(=O)Cc1ccc(OC)cc1 (stereo partly drawn)
0.0561

composite z-score recorded for this compound, O=C(O)[C@H]1C[C@H]2C(=O)N[C@@H](Cc3ccccc3)C(=O)N2[C@H]1c1ccc(O)cc1 , is -0.372

composite z-score recorded for this compound, COCCOC(=O)N1C(=O)[C@@]2(c3cc(C#CC4(O)CCCCCC4)ccc31)[C@H](C(=O)NC[C@H](O)c1ccccc1)[C@H]1C(=O)O[C@H](c3ccccc3)[C@H](c3ccccc3)N1[C@@H]2c1ccccc1OCCO , is 0.405

composite z-score recorded for this compound, C=C(COC)/C(=C/C[C@H](OC(C)=O)c1cccc(OCCO)c1)c1cc(C(=O)OC)ccc1OC , is 1.25

* * *

Items are presented alongside their recorded z-score.
assay: basal HepG2 mitochondrial membrane potential changes, profiling panel, cell-based, JC-1 fluorescence, 24 h, 100 nL compound (AID 1167); conditions: higher = more signal; also: test concentration not given here
Output: the number by itself.

z-score recorded for this molecule, C=CCC(OC(C)=O)[C@@H]1[C@@H](N(Cc2ccc(-c3ccccc3)cc2)C(=O)c2ccc(-c3ccccc3)cc2)c2cc(OCCCO)ccc2N1C(=O)c1ccc(-c2ccccc2)cc1 (stereo not given in full) , is 2.74

z-score recorded for this molecule, CCN(CC)c1ccc(N2CC=CC34O[C@@H]5C=CCOC(=O)[C@@H]5[C@H]3C(=O)N(C(C)CO)[C@@H]4C2=O)cc1 (stereo not given in full) , is 0.469

* * *

biological target: Follistatin (Homo sapiens) (UniProt P19883); assay: follistatin binders on small-molecule microarrays, primary screen, biochemical, small-molecule microarray, 635/667 nm fluorescence (AID 1132); settings: FST binding, 635 nm fluorescence, higher = more signal
Sequence (P19883 whole entry, looked up): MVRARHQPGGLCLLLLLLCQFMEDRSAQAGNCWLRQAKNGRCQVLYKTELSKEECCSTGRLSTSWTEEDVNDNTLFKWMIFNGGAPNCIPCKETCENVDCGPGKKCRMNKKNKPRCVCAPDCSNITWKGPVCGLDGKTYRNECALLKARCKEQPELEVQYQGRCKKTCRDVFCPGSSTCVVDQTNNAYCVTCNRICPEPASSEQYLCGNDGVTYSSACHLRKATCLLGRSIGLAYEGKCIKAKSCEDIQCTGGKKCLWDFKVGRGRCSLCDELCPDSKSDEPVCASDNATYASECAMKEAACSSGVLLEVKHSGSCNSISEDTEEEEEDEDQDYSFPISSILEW
The threshold is inclusive: composite z-score of exactly 0.6 counts as Yes; values below receive No.

Record excerpt, results attached:
CCCCC(=C=CC[C@@H](O)c1ccc(OCCO)cc1)C[C@@H](O)c1cc(Cl)cc(Cl)c1O
Yes
COc1ccc(C(=O)Nc2cccc(CN3C(=O)[C@@]4(O[C@@H](CCO)[C@H]([Si](C)(C)c5ccc(OC)cc5)[C@H]4C)c4ccccc43)c2)cc1
Yes
C=C(CCCC)/C(=C/C[C@H](OC(=O)c1ccncc1)c1ccc(CO)o1)c1cnc2ccccc2c1
Yes
CC(C)(C)OC(=O)CC[C@@]1(C(=O)NCc2ccccc2)N=C(c2ccc(OCCCO)cc2)O[C@@H]1c1ccccc1CN=[N+]=[N-]
Yes

Q: Please tell me: is the compound CC(C)CCC[C@@H](C)[C@H]1CC[C@@]2(C)C3=C(CC[C@]12C)[C@@]1(C)CC[C@H](OC(=O)CCl)C(C)(C)C1CC3 (some centres undefined) at or over 0.6 in terms of composite z-score?
Ans: No

Q: Please tell me: is the compound C=C(/C(=C/C[C@H](OC(C)=O)c1cccc(OCCO)c1)c1cc(C(=O)OC)ccc1OC)C(C)C at or over 0.6 in terms of composite z-score?
Ans: No

Q: Please tell me: is the compound NCCCCCCNC(=O)[C@@H]1C[C@@H]2C(=O)N[C@@H](Cc3ccccc3)C(=O)N2[C@@H]1c1ccc(O)cc1 at or over 0.6 in terms of composite z-score?
Ans: Yes

Where do these numbers come from? They come from PubChem BioAssay.
